test: Cytotoxicity against Chlorocebus aethiops (African green monkey) Vero cells assessed as maximum non-toxic concentration after 24 hr; assay type: cell-based; conditions: chlorocebus sabaeus, read-out: Activity
measureName: MNTC at 24 h
Entry format: amount then unit.

-- ask # query: MNTC at 24 h of entry O=C1/C(=C/c2ccc(F)cc2)CC/C1=C\c1ccc(F)cc1
-- reply 0.0833 µg/mL
